The origin of these recorded values is the supplement of paper PMC6555819.

# System: RXRa DBDmut IVT, anti-RXR (DBD mutation: RXRa K156A/R161A, NR concentration 90 nM)
# assay details: PBM binding z-score (relative to random genomic background probes); higher = stronger binding; sequences stand for … in GC…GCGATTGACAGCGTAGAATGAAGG
Cut-off 0.1 on PBM binding z-score, inclusive. At or above means true; below means false.

seq text	subject of test	assigned label
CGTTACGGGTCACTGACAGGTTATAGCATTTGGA	RXRa DBDmut IVT, anti-RXR (DBD mutation: RXRa K156A/R161A, NR concentration 90 nM)	true
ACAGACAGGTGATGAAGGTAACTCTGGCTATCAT	RXRa DBDmut IVT, anti-RXR (DBD mutation: RXRa K156A/R161A, NR concentration 90 nM)	false
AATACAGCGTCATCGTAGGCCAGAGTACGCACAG	RXRa DBDmut IVT, anti-RXR (DBD mutation: RXRa K156A/R161A, NR concentration 90 nM)	false
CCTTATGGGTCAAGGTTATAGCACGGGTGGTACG	RXRa DBDmut IVT, anti-RXR (DBD mutation: RXRa K156A/R161A, NR concentration 90 nM)	true
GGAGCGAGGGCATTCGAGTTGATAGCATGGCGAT	RXRa DBDmut IVT, anti-RXR (DBD mutation: RXRa K156A/R161A, NR concentration 90 nM)	true
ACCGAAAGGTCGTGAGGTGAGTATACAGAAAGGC	RXRa DBDmut IVT, anti-RXR (DBD mutation: RXRa K156A/R161A, NR concentration 90 nM)	true
